Target: Dock1 DHR-1 domain (422-619) (Homo sapiens)
Sequence (Q14185 422-619): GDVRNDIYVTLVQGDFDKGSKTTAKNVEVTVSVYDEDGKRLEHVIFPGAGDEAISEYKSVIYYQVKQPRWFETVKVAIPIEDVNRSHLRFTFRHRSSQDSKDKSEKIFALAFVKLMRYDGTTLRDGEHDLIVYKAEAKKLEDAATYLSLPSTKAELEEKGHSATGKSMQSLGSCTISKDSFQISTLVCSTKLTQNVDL
pKd: −log10 of the molar value.
experimental endpoint: pKd

INSERT INTO measurements (compound, experimental_endpoint, observed_result) VALUES
  ('O=P(O)(O)O[C@H]1[C@H](O)[C@@H](OP(=O)(O)O)[C@H](OP(=O)(O)O)[C@@H](OP(=O)(O)O)[C@H]1O [Ins(1,3,4,5)P4]', 'pKd', 5.11);
